test system: SF-268; assay: NCI tumour cell line growth inhibition, 48 h
Calls of active or inactive are those of the source. Rule as the data show it: active = GI50 up to about 1.1 µM and inactive = higher.
Assign a class; possible classes are t for active, f for inactive

Example cases with answers are listed next.
molecule="CCC1CN2CCc3cc(OC)c(OC)cc3C2CC1CC1c2cc(OC)c(OC)cc2CCN1C(=O)C1CCCN1C(=O)OCc1ccccc1 (stereo not given)" label_value=f
molecule="CCOc1cc2c(cc1O)C(O)C[C@@H]1[C@@H]2CC[C@]2(C)[C@@H](O)CC[C@@H]12 (stereo not given in full)" label_value=f
molecule="COc1cc(C2c3cc4c(cc3OC(Nc3ccc(C(=O)O)cc3)C2C)OCO4)cc(OC)c1OC (stereo not given)" label_value=t
molecule="NC1=NCC(CN2CCCC2)O1 (stereo not given)" label_value=f

[Q] Can you look up the reported call for Nc1cccc(OCC2CCCN3CCCCC23)c1 (stereo not given) for me?
[A] f

###

system: M19-MEL; test: NCI tumour cell line growth inhibition, 48 h
The source made the active and inactive calls. No stated cut-off is given here; in the data, active = GI50 up to about 1.1 µM and inactive = higher.
Assign a class; possible classes are 1.0 (active), 0.0 (inactive)

Example cases with answers are listed next.
compound=Cn1c(=O)nc2n(-c3ccc(Cl)cc3Cl)c3ccccc3nc-2c1=O label_value=1.0
compound=N#C/C(=C\c1ccc2[nH]ccc2c1)C(=O)NCCCCNC(=O)/C(C#N)=C/c1ccc2[nH]ccc2c1 label_value=0.0
compound="CC(=O)OCC1OC(n2c(-c3ccc(N)cc3)cc(-c3ccco3)c(C#N)c2=O)C(OC(C)=O)C(OC(C)=O)C1OC(C)=O (centres undefined)" label_value=0.0

Now turn to the next compound.
[Q] Can you look up the reported call for Cc1cc(C)nc(NS(=O)(=O)c2ccc(NC(=O)c3cccc4c(Nc5ccc(S(=O)(=O)N=C(N)N)cc5)c5ccccc5nc34)cc2)n1 for me?
[A] 0.0

###

tested on: 786-0; experiment: NCI tumour cell line growth inhibition, 48 h
Activity calls are given as the source filed them. Rule as the data show it: active = GI50 up to about 1.1 µM and inactive = higher.
measurement-type: GI50

Sample records with GI50:
compound="CCCCCCCCCCCCCCCC(=O)OC1C(O)C(O)C(O)C(O)C12CO2 (stereo unspecified)" reading="18.6 µM (inactive)"
compound=O=C1N[C@@H]([C@H](CCCCCO)OC(=O)c2ccccc2)CO1 reading="> 100 µM (inactive)"
compound=CC(C)C[C@H](NC(=O)[C@@H](N)Cc1cccc2ccccc12)B(O)O reading="< 0.0216 µM (active)"

For each of the compounds below, note its GI50.
1. O=C1CSC(c2c[nH]c3ccccc23)N1c1cccc(Cl)c1 (stereo unspecified)
2. NC(=O)c1ncn(C2OC(CO)C(O)C2O)c1NC=O (stereo unspecified)
3. O=S(=O)(Cc1cnc(O)nc1O)Cc1cnc(O)nc1O
4. O=C1CCCCC1CN1CCCC1 (stereo unspecified)
5. CS/C(=N/C(=O)c1ccccc1)SCCS/C(=N\C(=O)c1ccccc1)SC
6. COc1cc(/N=N/N(C)C)c(C(C)c2c3cc(OC)c(OC)cc3cc[n+]2C)cc1OC (stereo unspecified)
7. CCOC(=O)CCC(C(=O)OCC)n1nnc2cc(Nc3c(C)[n+]([O-])c4ccc(Cl)cc4[n+]3[O-])ccc21 (stereo unspecified)

[A]
25.5 µM (inactive)
> 100 µM (inactive)
> 100 µM (inactive)
> 100 µM (inactive)
> 100 µM (inactive)
51.8 µM (inactive)
98.4 µM (inactive)

[Q] What reported GI50 corresponds to CC(NC(=O)c1c(O)[nH]c(=S)[nH]c1=O)c1ccc([N+](=O)[O-])cc1 (stereo unspecified) on 786-0?
[A] 94.6 µM (inactive)

###

tested on: SK-OV-3; assay: NCI tumour cell line growth inhibition, 48 h
Active and inactive are the calls of the source. No stated cut-off is given here; in the data, active = GI50 up to about 1.1 µM and inactive = higher.
Assign a class; possible classes are active, inactive

Example cases with answers are listed next.
compound="CC(=O)O[C@H]1CCC2[C@@H]3CCC4C(=O)c5oncc5C[C@]4(C)C3CC[C@@]21C (stereo partly drawn)" label_value=inactive
compound="COc1ccc(/C(CC2OC(=O)c3ccccc32)=N\\NC(N)=O)cc1 (stereo not drawn)" label_value=inactive
compound="N#CC(/C(=N\\NC(=O)c1ccncc1)C(=O)Nc1ccc([N+](=O)[O-])cc1[N+](=O)[O-])c1nc(-c2ccc(Br)cc2)cs1 (stereo not drawn)" label_value=inactive
compound="COc1cc2c(cc1OC)C(C#N)(Cc1ccccc1)N(C(=O)c1ccccc1)C=C2 (stereo not drawn)" label_value=inactive
compound="CC12Nc3ccccc3N1C(=O)c1ccccc12 (stereo not drawn)" label_value=inactive

[Q] Can you look up the reported call for N#CC(C(=O)/C(=N\NC(N)=O)C(C#N)c1ccc(Cl)cc1)c1ccc(Cl)cc1 (stereo not drawn) for me?
[A] inactive

[Q] Can you look up the reported call for CC(=O)C1=C(C)N2C(=NC3=C(CCc4ccccc43)C2c2ccc(F)cc2)S1 (stereo not drawn) for me?
[A] inactive

[Q] Can you look up the reported call for COc1ccc(/C=C2\NC(=S)N(CN3CCOCC3)C2=O)cc1 for me?
[A] inactive

[Q] Can you look up the reported call for CN(C)C(=O)NC(=S)N(C)C for me?
[A] inactive

[Q] Can you look up the reported call for CC(C(=O)N1C(=O)N(C(=O)[C@H](C)C(O)c2ccccc2)[C@H](c2ccccc2)[C@H]1c1ccccc1)[C@@H](O)c1ccccc1 (stereo partly drawn) for me?
[A] inactive

[Q] Can you look up the reported call for O=C(NCCCCCCO)c1cccc2cc3ccccc3nc12 for me?
[A] inactive

###

system: COLO 205; assay: NCI tumour cell line growth inhibition, 48 h
Active and inactive are the calls of the source. Cut-off read from the data, not from the text of the source: active = GI50 up to about 1.1 µM and inactive = higher.
measurement-type: GI50

compound=CCOC(=O)c1c(C)n(Cc2ccccc2)c2c1cc(O)c1[nH]c3c(c12)CCCC3 reading="5.85 µM (inactive)"
compound=O=C(/C=C/CC(O)(c1ccccc1)c1ccccc1)Nc1ccccc1Cl reading="> 100 µM (inactive)"
compound=O=C(N/C(=C\c1cccc([N+](=O)[O-])c1)c1nc2ccccc2[nH]1)c1ccccc1 reading="93.1 µM (inactive)"

For each of the compounds below, note its GI50.
1. O=C1CSC(c2c[nH]c3ccccc23)N1c1cccc(Cl)c1 (stereo not given)
2. CCSc1nc(-c2ccc(OC)cc2)c(C#N)c(=O)n1C1OCC(OC(C)=O)C(OC(C)=O)C1OC(C)=O (stereo not given)
3. CC(CC(=O)O)C(C(=O)O)C(=O)O (stereo not given)
4. CN(C)/N=C/c1cn(C)c(=O)n(C)c1=O
5. CN(C)CC1CCC/C1=N\O (stereo not given)
6. O=C1CC2(CCC(O)(c3ccco3)C(C(=O)c3ccco3)C2)C(=O)c2ccccc2N1 (stereo not given)
7. O=C(/C=C/c1csc(-c2ccccc2)n1)NCc1ccc(C(=O)NCCc2ccccc2)cc1

[A]
50.7 µM (inactive)
> 100 µM (inactive)
> 100 µM (inactive)
> 100 µM (inactive)
> 100 µM (inactive)
> 100 µM (inactive)
42.1 µM (inactive)

###

tested on: SK-MEL-28; assay: NCI tumour cell line growth inhibition, 48 h
The source made the active and inactive calls. No stated cut-off is given here; in the data, active = GI50 up to about 1.1 µM and inactive = higher.
Assign a class; possible classes are 1.0 for active, 0.0 for inactive

molecule=COc1ccc2c(c1O)[C@@]13CCCC=C1[C@@H](C2)N(C)CC3 label_value=0.0

[Q] Can you look up the reported call for COc1c(Br)cc(/C=C(\C#N)c2ccccn2)cc1Br for me?
[A] 0.0

[Q] Can you look up the reported call for COc1cc(/C=C2/C(=O)N(C(=O)OCc3ccccc3)C(Cc3cc(OC)c(OC)c(C)c3OC)C(=O)N2Cc2ccccc2)c(OC)c(C)c1OC (configuration not stated) for me?
[A] 0.0

###

test system: DU-145; assay: NCI tumour cell line growth inhibition, 48 h
Calls of active or inactive are those of the source. No stated cut-off is given here; in the data, active = GI50 up to about 1.1 µM and inactive = higher.
Assign a class; possible classes are active, inactive

Example cases with answers are listed next.
compound=CC(C)(C)c1cc(/C=C(\C#N)C(=O)NCCO)cc(C(C)(C)C)c1O label_value=inactive
compound="NC1=NCC(CN2CCCC2)O1 (stereo not given)" label_value=inactive
compound=COc1c(C(=O)O)cccc1-c1cccc(C(=O)NCCN(CCNC(=O)c2cccc(-c3cccc(C(=O)O)c3OC)c2OC)CCNC(=O)c2cccc(-c3cccc(C(=O)O)c3OC)c2OC)c1OC label_value=inactive
compound=COc1cc(/C=N/N=C2NCCCN2)ccc1O label_value=inactive

Now turn to the next compound.
[Q] Can you look up the reported call for CCOC(=O)c1ccc(C(=O)/C(C#N)=C2\CCCN2C)[nH]1 for me?
[A] inactive

###

Please respond with reported GI50 for every item in the list.
system: SK-MEL-2; experiment: NCI tumour cell line growth inhibition, 48 h
The source made the active and inactive calls. Cut-off read from the data, not from the text of the source: active = GI50 up to about 1.1 µM and inactive = higher. Starred links: 1 amine or outer side, 2 acyl side, 3 side chain; linkers in the order of their positions; H or OH if unused. Positions of bridges follow the written chain, without caps; N, C: chain ends. Non-standard residues stand in square brackets, D forms with d. Residues, ends and D or L forms follow the SMILES beside them. ξ: configuration not given here. *: point of attachment. γ4hArg(2R,3R-(OH)2) = N=C(N)NCCC[C@H](N[*:1])[C@@H](O)[C@@H](O)C(=O)[*:2]; Gln(3S,4R-Me2) = C[C@H]([C@H](N)C(=O)O)[C@@H](C)C(N)=O; X50 = CC(C)C[C@H](C)[C@@H](O)[C@@H](C)C(=O)*; X51 = COC(c1ccc(O)cc1)C(N[*:1])C(=O)[*:2]; NMeQ = CN[C@@H](CCC(N)=O)C(=O)O; Thr(3ξ) = CC(O)[C@H](N)C(=O)O; NMeA = CN[C@@H](C)C(=O)O

Sample records with GI50:
molecule="Nc1ncnc2c1ncn2CCOC(c1ccccc1)P(=O)(O)O (stereo unspecified)" subject_of_test=SK-MEL-2 reading="> 100 µM (inactive)"
molecule=Cc1cc(O)no1 subject_of_test=SK-MEL-2 reading="> 100 µM (inactive)"
molecule=Cc1cc(=O)nc(S(=O)(=O)NC(=S)Nc2ccc(Br)cc2)[nH]1 subject_of_test=SK-MEL-2 reading="> 100 µM (inactive)"
molecule="COC(c1ccc(O)cc1)C1NC(=O)[C@H](CCC(N)=O)N(C)C(=O)[C@H](CC(C)C)NC(=O)[C@@H](CCCN=C(N)N)NC(=O)[C@H](C(C)O)NC(=O)[C@@H](NC(=O)[C@@H](NC(=O)[C@H](O)[C@H](O)[C@H](CCCN=C(N)N)NC(=O)[C@H](C)NC(=O)[C@H](C)[C@H](O)[C@@H](C)CC(C)C)[C@@H](C)[C@@H](C)C(N)=O)[C@@H](C)OC(=O)[C@H](C)N(C)C1=O (stereo partly drawn) (X50-A[γ4hArg(2R,3R-(OH)2)][Gln(3S,4R-Me2)]T[Thr(3ξ)][dR]L[NMeQ][X51][NMeA]; ester 4-C)" subject_of_test=SK-MEL-2 reading="0.247 µM (active)"
molecule=COc1ccc2c(c1)CC[C@@H]1[C@@H]2CC[C@]2(C)C(=O)/C(=C/c3ccncc3)C[C@@H]12 subject_of_test=SK-MEL-2 reading="22.5 µM (inactive)"
molecule="COCCOC(C)C(=O)C(O)S(=O)(=O)O (stereo unspecified)" subject_of_test=SK-MEL-2 reading="> 100 µM (inactive)"

For each of the molecules below, note its GI50.
1. O=c1[nH]c(=O)n(C/C=C/CO)nc1Br
2. O=C1Nc2ccccc2/C1=N/NC(=S)NCc1ccccn1
3. COc1c(C(=O)O)cccc1-c1cccc(C(=O)NCCN(CCNC(=O)c2cccc(-c3cccc(C(=O)O)c3OC)c2OC)CCNC(=O)c2cccc(-c3cccc(C(=O)O)c3OC)c2OC)c1OC
4. COC(=O)C1C/C(=C/N(C)C)C(=S)N1 (stereo unspecified)
5. O=C1c2ccccc2-c2c1c(-c1ccc([N+](=O)[O-])cc1)nc1ccc3ccccc3c21

[A]
["> 100 µM (inactive)", "2.9 µM (inactive)", "31.8 µM (inactive)", "> 100 µM (inactive)", "> 100 µM (inactive)"]
